# System: NCI-H522 lung
# Procedure details: NCI-60 one-dose screen, 48 h (100 = growth as untreated, 0 = no growth, -100 = all killed)
# Applied conditions: 10 µM unless noted
The panel holds about 83,000 compounds, 20% with a hit somewhere; the sample as a whole holds those more often.
// classify: if (growth < 60%) rule met else rule not met

# Compound, Label class
data = [
    ("Cc1ccc(S(=O)(=O)OC2COCOC2C(OS(=O)(=O)c2ccc(C)cc2)C2OCOCC2OS(=O)(=O)c2ccc(C)cc2)cc1 (stereo unspecified)", "rule not met"),
    ("N#CC1=C(N)OC2=C(C(=O)CCC2)C1c1ccco1 (stereo unspecified)", "rule not met"),
    ("COc1ccc([N+](=O)[O-])c(/C=C/C(=O)c2ccccn2)c1", "rule not met"),
    ("COc1cccc(/C=C/C(=O)c2sc(Nc3ccc(O)cc3)nc2C)c1", "rule met"),
    ("CN(C)C1CCC(NC2=CC(=O)C=CC2=O)CC1 (stereo unspecified)", "rule not met"),
    ("O=S(=O)(NCCCNc1nccc(-c2c(-c3ccc(F)c(O)c3)nc3sccn23)n1)c1ccc(Cl)cc1", "rule met"),
]

is_below(growth, 60%) for CCCC(C(=O)OCC)C(C)OC(=O)OCC (stereo unspecified) ?
rule not met

----------
Reported values of growth for individual entries
# Tested on: SNB-19 CNS
# Procedure details: NCI-60 one-dose screen, 48 h (100 = growth as untreated, 0 = no growth, -100 = all killed)
# Applied conditions: 10 µM unless noted
Compounds without any hit were thinned out: in the full panel of roughly 83,000, 20% have a hit.
State the answer as a number, implicitly in %.

# Compound, U, growth
records = [
    ("COc1ccc(C2CC(=O)Nc3c2c(C)nn3-c2nc3ccccc3[nH]2)cc1OC (centres undefined)", "%", 84.9),
    ("CCN1C(=O)N[C@H]2[C@@H]3NC(=O)c4ccc(Cl)n4[C@@H]3C[C@]21O", "%", -8.44),
    ("O=C(O)c1cn(C2CC2)c2cc(N3CCN(S(=O)(=O)c4ccc(Cl)c(Cl)c4)CC3)c(F)cc2c1=O", "%", 24.7),
    ("COc1ccc(C2=NN(c3ccc(S(N)(=O)=O)cc3)C(c3cn(-c4ccccc4)nc3-c3ccc(Cl)cc3)C2)cc1 (centres undefined)", "%", 92.5),
    ("C[N+](C)(C)c1ccc(CC2c3ccccc3-c3ccccc32)cc1", "%", 23.2),
    ("COc1cc(C(=O)OCCCCCCCCCCC[P+](c2ccccc2)(c2ccccc2)c2ccccc2)ccc1O", "%", -54.9),
]

Which value of growth has been reported for COc1ccc(-c2nc3sccn3c2-c2ccnc(NCCCNS(=O)(=O)c3ccc4ccccc4c3)n2)cc1 in the records?
86.1

One more compound: COc1ccc2c(c1)C(C)Cc1c(N(C)C)ncnc1N2C (centres undefined)
40.5

One more compound: COc1ccc(/C=C\c2cc(OC)c(OC)c(OC)c2)c(NS(=O)(=O)c2ccc(C(C)(C)C)cc2)c1O
46.1

----------
# Test system: KM12 colon
# Procedure details: NCI-60 one-dose screen, 48 h (100 = growth as untreated, 0 = no growth, -100 = all killed)
# Applied conditions: 10 µM unless noted
About 83,000 compounds went through this panel and 20% of them were active in at least one assay; those are over-represented in the sample as a whole.
Output Satisfied for growth not less than 20%; output Not satisfied otherwise.

Example results:
# Compound, Label class
data = [
    ("C=C1C(=O)O[C@H]2[C@H]1CC/C(COC(=O)NCCc1cccc(OC)c1)=C\\CC[C@@]1(C)O[C@@H]21", "Satisfied"),
    ("O=C(CCl)NCCNc1nccc(Nc2ccc(S(=O)(=O)Nc3ccccn3)cc2)n1", "Satisfied"),
    ("CCc1cccc(C)c1NC(=O)c1sc2nc3c(cc2c1N)C(=O)CCC3", "Not satisfied"),
]

Determine whether this compound has growth no lower than 20%: CCn1cc(C(=O)O)c(=O)c2cc(F)c(N3CCN(S(=O)(=O)c4cccc5ccccc45)CC3)cc21
Not satisfied

One more compound: Cc1ccc(-c2csc3nc(C)c(CCCl)c(=O)n23)cc1
Satisfied

One more compound: COC1=CC(c2ccc[nH]2)=N/C1=C\c1[nH]c(C)c(C(=O)CCC(=O)Oc2ccc3c(c2)CCC2C3CC[C@]3(C)[C@@H](O)CC[C@@H]23)c1C (stereo not given in full)
Not satisfied

One more compound: Cn1c(C(N)=O)cc2c1-c1nc(NC3CCCCC3)ncc1CCC2
Satisfied

One more compound: CCSc1nnc(NC(=O)Cc2ccc(Cl)cc2)s1
Satisfied

One more compound: O=C(Nc1ccc(I)cc1)c1cccc([N+](=O)[O-])c1O
Not satisfied

One more compound: COc1ccc(/C=C2\CCCC3=C2NC(C)=NC3c2ccc(OC)c(OC)c2)cc1OC (stereo not given)
Not satisfied
